measurement.target: T1, extracellular domain (ECD) of human epidermal growth factor receptor 2 (HER2) (Homo sapiens, UniProt P04626)
T1 construct: human epidermal growth factor receptor 2 (HER2), extracellular domain; also called HER2/ECD
experiment.description: SPR; BIAcore T200; HER2/ECD immobilised on a CM5 chip by amine coupling to 1000 RU; IgG flowed in PBST (0.05% Tween 20) at 30 uL/min; regeneration 10 mM glycine pH 1.5; global fit to a 1:1 binding model
applied.conditions: both partners purified
readout.kind: kon

[[record]]
binder = "GH2-36 IgG (antibody, V domains shown, source: HEK293-F, transient transfection, purified (Protein A, Superdex 200)) VH: EVQLVESGGGLVQPGGSLRLSCAASGFTIGGGGIHWVRQAPGKGLEWVAYIGPYGGYTSYADSVKGRFTISADTSKNTAYLQMNSLRAEDTAVYYCARFHDHIGGIMDYWGQGTLVTVSS VL: DIQMTQSPSSLSASVGDRVTITCRASQDVNSNVAWYQQEPGKAPKLLIYFSSGLYSGVPSRFSGSGSGTDFTLTISSLQPEDFATYYCQQYYNWPLTFGQGTKVEIK"
reading = "8.68e+08 M⁻¹ s⁻¹"

[[record]]
binder = "GH2-42 IgG (antibody, V domains shown, source: HEK293-F, transient transfection, purified (Protein A, Superdex 200)) VH: EVQLVESGGGLVQPGGSLRLSCAASGFTISNWGIHWVRQAPGKGLEWVAGIGPYGGYTSYADSVKGRFTISADTSKNTAYLQMNSLRAEDTAVYYCARFGFYFDGIMDYWGQGTLVTVSS VL: DIQMTQSPSSLSASVGDRVTITCRASQDVSSGVAWYQQKPGKAPKLLISGPTGLYSGVPSRFSGSGSGTDFTLTISSLQPEDFATYYCQQYYDWPLTFGQGTKVKRG"
reading = "1.39e+06 M⁻¹ s⁻¹"

[[record]]
binder = "GH2-59 IgG (antibody, V domains shown, source: HEK293-F, transient transfection, purified (Protein A, Superdex 200)) VH: EVQLVESGGGLVRPGGSLRLSCAASGFTIGDWYIHWVRQAPGKGLEWVAGIGPYWGYTSYADSVKGRFTISADTSKNTAYLQMNSLRAEDTAVYYCARFVGDVWHDMDYWGQGTLVAVSS VL: DIQMTQSPSSLSASVGDRVTITCRASQDVSGGVAWYQQKPGKAPKLLISWTGSLYSGVPSRFSGSGSGTDFTLTISSLQPEDFATYYCQQWSDFPITFGQGTKVEIK"
reading = "47800 M⁻¹ s⁻¹"


FYI, the data here is from paper PMC5378893.
